All figures here come from paper PMC10447463.

Tested on: HIV-1 infection of TZM-bl cells
experiment_summary: HIV-1 infectivity enhancement assay, β-galactosidase luminescence
Type: cell-based
run_parameters: absolute HIV-1 infection signal, TZM-bl cells, β-galactosidase luminescence
Reported Abs. Inf. values are given for each entry in this list.
assay_endpoint: Abs. Inf.

{"columns": ["macromolecule_sequence", "assay_value"],
 "data": [
  ["CKFKFQFW", 17862.22222],
  ["EIEIQINM", 203.3],
  ["KIKIQINMWWWQ", 15400],
  ["EIEIQINMWQ", 2137],
  ["KIKIQINMWQRGD", 196.7]
]}

* * *

Tested on: HIV-1 infection of TZM-bl cells
experiment_summary: HIV-1 infectivity enhancement assay, β-galactosidase luminescence
Type: cell-based
run_parameters: Feb2021; n-fold enhancement relative to EF-C

{"columns": ["macromolecule_sequence", "tested_on", "Rel-to EFC (Feb-2021)"],
 "data": [
  ["KIKIQINMWQ [JG1]", "HIV-1 infection of TZM-bl cells", 0.2968],
  ["RGDCKFKFQF [TM64/ CN15]", "HIV-1 infection of TZM-bl cells", 0.1519],
  ["KFKFQFNMWQ [JG4]", "HIV-1 infection of TZM-bl cells", 0.7649],
  ["QCKIKIQINM [CK2]", "HIV-1 infection of TZM-bl cells", 0.3959],
  ["QCKFKFQFNM [CK8]", "HIV-1 infection of TZM-bl cells", 0.5121],
  ["CKAKAQANMWQ [BL8]", "HIV-1 infection of TZM-bl cells", 0.04371],
  ["RGDSKIKIQIC [TM113 / RC11]", "HIV-1 infection of TZM-bl cells", 0.5957],
  ["QCKAKAQA [CK24]", "HIV-1 infection of TZM-bl cells", 0.02526],
  ["QCKIKQII [CK6]", "HIV-1 infection of TZM-bl cells", 0.006472]
]}
